IC50 by entry:
- Test system: H358 cells
- assay explanation: Antiproliferative activity against H358 cells (Cell Titer Glow, ultra-low attachment plate)
- Assay type: cell-based
- run conditions: Homo sapiens, NCI-H358, 72 h, three days after addition of compound

Worked cases, IC50 given:
[
  {
    "molecule": "C=CC(=O)N1CC2(CCN(c3nc(N4CC(COC)C4)nc4c(OCC(F)(F)F)c(-c5c(C)ccc6[nH]ncc56)c(C5CC5)cc34)CC2)C1 [Compound 9]",
    "quantity name": "IC50",
    "val": "< 0.3 µM"
  },
  {
    "molecule": "C=CC(=O)N1CC2(CCN(c3nc(N4CC(CO)C4)nc4c(OCC(F)(F)F)c(-c5c(C)ccc6[nH]ncc56)c(C5CC5)cc34)CC2)C1 [Compound 3]",
    "quantity name": "IC50",
    "val": "0.3 to 1 µM"
  },
  {
    "molecule": "C=CC(=O)N1CC2(CCN(c3nc(O[C@H]4C[C@H](N5CCC5)C4)nc4c(OCC(F)(F)F)c(-c5c(C)ccc6[nH]ncc56)c(C5CC5)cc34)CC2)C1 [Compound 88]",
    "quantity name": "IC50",
    "val": "0.3 to 1 µM"
  },
  {
    "molecule": "C=CC(=O)N1CC2(CCN(c3nc(N4CCC5(CCCN5C)CC4)nc4c(OCC(F)(F)F)c(-c5c(C)ccc6[nH]ncc56)c(C5CC5)cc34)CC2)C1 [Compound 79]",
    "quantity name": "IC50",
    "val": "< 0.3 µM"
  }
]

Prompt: Fill: IC50 (H358 cells) for this molecule C=CC(=O)N1CC2(CCN(c3nc(O[C@H]4C[C@@H](N(C)C)C4)nc4c(OCC(F)(F)F)c(-c5c(C)ccc6[nH]ncc56)c(C5CC5)cc34)CC2)C1 [Compound 85]
Response: < 0.3 µM

Prompt: Give IC50 only, for C=CC(=O)N1CC2(CCN(c3nc(N4CCC(OC5CN(C)C5)CC4)nc4c(OCC(F)(F)F)c(-c5c(C)ccc6[nH]ncc56)c(C5CC5)cc34)CC2)C1 [Compound 16] , using H358 cells data.
Response: < 0.3 µM

Prompt: Determine reported IC50 for C=CC(=O)N1CC2(C1)CN(c1nc(N3CC(N4CC5(CC5)C4)C3)nc3c(OCC(F)(F)F)c(-c4c(C)ccc5[nH]ncc45)c(C4CC4)cc13)C2 [Compound 101] ; test system: H358 cells.
Response: < 0.3 µM

Prompt: Report value: IC50, system: H358 cells, molecule: C=CC(=O)N1CC2(CCN(c3nc(N4CCC5(CCN5C)C4)nc4c(OCC(F)(F)F)c(-c5c(C)ccc6[nH]ncc56)c(C5CC5)cc34)CC2)C1 (centres unmarked) [Compound 77]
Response: < 0.3 µM

Prompt: # return IC50 for C=CC(=O)N1CC2(CCN(c3nc(N4CC(N5CC6(CN(C)C6)C5)C4)nc4c(OCC(F)(F)F)c(-c5c(C)ccc6[nH]ncc56)c(C5CC5)cc34)CC2)C1 [Compound 32] , test system: H358 cells
Response: < 0.3 µM

Prompt: Find the measured IC50 of C=CC(=O)N1CC2(CCN(c3nc(N4CC(N5CC6(COC6)C5)C4)nc4c(OCC(F)(F)F)c(-c5c(C)ccc6[nH]ncc56)c(C5CC5)cc34)CC2)C1 [Compound 30] with H358 cells as test system.
Response: < 0.3 µM

Prompt: Given C=CC(=O)N1CC2(CCN(c3nc(O[C@H]4C[C@@H](N5CCCC5)C4)nc4c(OCC(F)(F)F)c(-c5c(C)ccc6[nH]ncc56)c(C5CC5)cc34)CC2)C1 [Compound 89] , report its IC50 on H358 cells.
Response: < 0.3 µM

----------
- Tested on: H358 cells
- assay explanation: Antiproliferative activity against H358 cells (Cell Titer Glow, ultra-low attachment plate)
- Type: cell-based
- run conditions: Homo sapiens, NCI-H358, 72 h, three days after addition of compound
quantity name: IC50

Record excerpt, results attached:
[
  {
    "compound": "C=CC(=O)N1CC2(CCN(c3nc(O[C@H]4C[C@H](N5CC6(CC6)C5)C4)nc4c(OCC(F)(F)F)c(-c5c(C)ccc6[nH]ncc56)c(C5CC5)cc34)CC2)C1 [Compound 94]",
    "val": "300 to 1000 nM"
  },
  {
    "compound": "C=CC(=O)N1CC2(CCN(c3nc(N4CC(CC#N)(n5ccnc5)C4)nc4c(OCC(F)(F)F)c(-c5c(C)ccc6[nH]ncc56)c(C5CC5)cc34)CC2)C1 [Compound 57]",
    "val": "300 to 1000 nM"
  },
  {
    "compound": "C=CC(=O)N1CC2(CCN(c3nc(N4CCC5(CCCN5CCOC)CC4)nc4c(OCC(F)(F)F)c(-c5c(C)ccc6[nH]ncc56)c(C5CC5)cc34)CC2)C1 [Compound 80]",
    "val": "300 to 1000 nM"
  },
  {
    "compound": "C=CC(=O)N1CC2(CCN(c3nc(N4CC(C)(CN5CCC5)C4)nc4c(OCC(F)(F)F)c(-c5c(C)ccc6[nH]ncc56)c(C5CC5)cc34)CC2)C1 [Compound 63]",
    "val": "< 300 nM"
  },
  {
    "compound": "C=CC(=O)N1CC2(CCN(c3nc(N4CC(CN(C)CCOC)C4)nc4c(OCC(F)(F)F)c(-c5c(C)ccc6[nH]ncc56)c(C5CC5)cc34)CC2)C1 [Compound 5]",
    "val": "< 300 nM"
  }
]

Prompt: Lab note: record IC50 of C=CC(=O)N1CC2(CCN(c3nc(N4CC(N5CC6(CCC6)C5)C4)nc4c(OCC(F)(F)F)c(-c5c(C)ccc6[nH]ncc56)c(C5CC5)cc34)CC2)C1 [Compound 29] tested on H358 cells.
Response: < 300 nM

Prompt: Provide IC50, tested on H358 cells, for C=CC(=O)N1CC2(CCN(c3nc(N4CC5(CCCCN5C)C4)nc4c(OCC(F)(F)F)c(-c5c(C)ccc6[nH]ncc56)c(C5CC5)cc34)CC2)C1 [Compound 75] .
Response: 300 to 1000 nM

Prompt: Tell me its IC50 on H358 cells: C=CC(=O)N1CC2(CCN(c3nc(N4CC(OC5CC5)C4)nc4c(OCC(F)(F)F)c(-c5c(C)ccc6[nH]ncc56)c(C5CC5)cc34)CC2)C1 [Compound 12]
Response: < 300 nM

Prompt: State measured IC50 of the compound C=CC(=O)N1CC2(CCN(c3nc(N4CC(S(=O)(=O)N5CCN(C)CC5)C4)nc4c(OCC(F)(F)F)c(-c5c(C)ccc6[nH]ncc56)c(C5CC5)cc34)CC2)C1 [Compound 49] with H358 cells.
Response: < 300 nM

Prompt: Report value: IC50, system: H358 cells, compound: C=CC(=O)N1CC2(CCN(c3nc(N4CC(N5CC6(CC6)C5)C4)nc4c(OCC(F)(F)F)c(-c5c(C)c(C)cc6[nH]ncc56)c(C5CC5)cc34)CC2)C1 [Compound 105]
Response: < 300 nM

Prompt: Report IC50 from H358 cells testing of C=CC(=O)N1CC2(CCN(c3nc(N4CC(CN(C)CCO)C4)nc4c(OCC(F)(F)F)c(-c5c(C)ccc6[nH]ncc56)c(C5CC5)cc34)CC2)C1 [Compound 4]
Response: < 300 nM

Prompt: Specify the recorded IC50 for C=CC(=O)N1CC2(CCN(c3nc(N4CC(n5ccnc5)C4)nc4c(OCC(F)(F)F)c(-c5c(C)ccc6[nH]ncc56)c(C5CC5)cc34)CC2)C1 [Compound 41] , system: H358 cells.
Response: 300 to 1000 nM

Prompt: Write IC50 of C=CC(=O)N1CC2(CCN(c3nc(N4CCC(CC#N)(N5CCC5)CC4)nc4c(OCC(F)(F)F)c(-c5c(C)ccc6[nH]ncc56)c(C5CC5)cc34)CC2)C1 [Compound 58] ; system used: H358 cells
Response: < 300 nM

Prompt: Give measured IC50 for C=CC(=O)N1CC2(CCN(c3nc(N4CC5(CCN5C5COC5)C4)nc4c(OCC(F)(F)F)c(-c5c(C)ccc6[nH]ncc56)c(C5CC5)cc34)CC2)C1 [Compound 71] (H358 cells).
Response: < 300 nM

Prompt: Provide IC50, recorded with H358 cells, of C=CC(=O)N1CC2(CCN(c3nc(O[C@H]4C[C@@H](N5CC6(CC6)C5)C4)nc4c(OCC(F)(F)F)c(-c5c(C)ccc6[nH]ncc56)c(C5CC5)cc34)CC2)C1 [Compound 93]
Response: < 300 nM

Prompt: Report value only: IC50, H358 cells, C=CC(=O)N1CC2(CCN(c3nc(N4CC(N5CC6(CC6)C5)C4)nc4c(OCC(F)(F)F)c(-c5c(O)cccc5F)c(C5CC5)cc34)CC2)C1 [Compound 112]
Response: < 300 nM

Prompt: Enter recorded IC50 with H358 cells for C=CC(=O)N1CC2(CCN(c3nc(N4CC(N5CC=CCC5)C4)nc4c(OCC(F)(F)F)c(-c5c(C)ccc6[nH]ncc56)c(C5CC5)cc34)CC2)C1 [Compound 43] here.
Response: > 1000 nM

Prompt: Enter IC50 (test system H358 cells) for C=CC(=O)N1CC2(CCN(c3nc(N4CC(N5CC[S+]([O-])CC5)C4)nc4c(OCC(F)(F)F)c(-c5c(C)ccc6[nH]ncc56)c(C5CC5)cc34)CC2)C1 [Compound 26]
Response: 300 to 1000 nM

Prompt: Give IC50; test system H358 cells; compound C=CC(=O)N1CC2(CCN(c3nc(N4CC(C)(N(C)C)C4)nc4c(OCC(F)(F)F)c(-c5c(C)ccc6[nH]ncc56)c(C5CC5)cc34)CC2)C1 [Compound 59]
Response: < 300 nM

Prompt: Report the value of IC50 obtained on H358 cells for C=CC(=O)N1CC2(CCN(c3nc(N4CC5(CN(CCOC)CCO5)C4)nc4c(OCC(F)(F)F)c(-c5c(C)ccc6[nH]ncc56)c(C5CC5)cc34)CC2)C1 [Compound 82] .
Response: < 300 nM

Prompt: Enter IC50 (test system H358 cells) for C=CC(=O)N1CC2(CCN(c3nc(N4CC5(CCCN5CC)C4)nc4c(OCC(F)(F)F)c(-c5c(C)ccc6[nH]ncc56)c(C5CC5)cc34)CC2)C1 [Compound 116]
Response: < 300 nM

Prompt: Find IC50 for C=CC(=O)N1CC2(CCN(c3nc(N4CC5(CC(OC)CN5C)C4)nc4c(OCC(F)(F)F)c(-c5c(C)ccc6[nH]ncc56)c(C5CC5)cc34)CC2)C1 (stereo not shown) [Compound 123] on H358 cells and write it down.
Response: < 300 nM
